- target_system: T1, cynomolgus (Macaca fascicularis) ST2L extracellular domain with C-terminal His6 tag (Macaca fascicularis (cynomolgus), UniProt Q01638 19-321 (human entry))
- T1 construct: also called cyno ST2L-ECD; cynoST2L-ECD
- T1 chain: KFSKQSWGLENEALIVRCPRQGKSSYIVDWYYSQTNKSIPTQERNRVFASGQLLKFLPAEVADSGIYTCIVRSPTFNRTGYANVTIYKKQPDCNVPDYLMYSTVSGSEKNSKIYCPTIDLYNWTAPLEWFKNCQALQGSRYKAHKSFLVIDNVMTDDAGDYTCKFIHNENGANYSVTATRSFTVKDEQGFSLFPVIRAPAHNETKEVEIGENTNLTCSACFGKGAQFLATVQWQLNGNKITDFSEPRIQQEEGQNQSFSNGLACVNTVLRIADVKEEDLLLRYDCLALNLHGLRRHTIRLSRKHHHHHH
- run_description: ProteOn SPR, mAb captured, ST2L-ECD in solution
Assignment: determine reported kon for the given binders.
One number for each entry, in M⁻¹ s⁻¹.

Some solved cases for reference:
STLM187 (antibody, V domains shown, C2494 HFA mAb: VH STLH195 (IGHV1-24*01) + VL STLL280 (O12b)) VH: QVQLVQSGAEVKKPGASVKVSCKVSAFNIKDDYMHWVRQAPGKGLEWMGRIDPAIGNTEYAPKFQDRVTMTEDTSTDTAYMELSSLRSEDTAVYYCATGDFYAMDYWGQGTLVTVSS VL: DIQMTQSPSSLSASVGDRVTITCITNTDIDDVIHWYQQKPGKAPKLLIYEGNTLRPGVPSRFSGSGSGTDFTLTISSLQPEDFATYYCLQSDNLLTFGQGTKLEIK: 1e+08
STLM190 (antibody, V domains shown, C2494 HFA mAb: VH STLH195 + VL STLL277 (L8)) VH: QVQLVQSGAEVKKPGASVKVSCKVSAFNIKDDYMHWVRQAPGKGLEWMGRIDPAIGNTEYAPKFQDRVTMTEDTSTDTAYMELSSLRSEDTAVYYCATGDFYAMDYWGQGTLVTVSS VL: DIQLTQSPSFLSASVGDRVTITCITNTDIDDVIHWYQQKPGKAPKLLIYEGNTLRPGVPSRFSGSGSGTEFTLTISSLQPEDFATYYCLQSDNMLTFGQGTKLEIK: 1e+08

Let us examine a further case.
Provide measured kon value, entry: STLM205 (antibody, V domains shown, C2494 HFA mAb: VH STLH194 + VL STLL272 (O18)) VH: EVQLVQSGAEVKKPGATVKISCKVSAFNIKDDYMHWVQQAPGKGLEWMGRIDPAIGNTEYAEKFQGRVTITADTSTDTAYMELSSLRSEDTAVYYCATGDFYAMDYWGQGTLVTVSS VL: DIQMTQSPSSLSASVGDRVTITCITNTDIDDVIHWYQQKPGKAPKLLIYEGNTLRPGVPSRFSGSGSGTDFTFTISSLQPEDIATYYCLQSDNMLTFGQGTKLEIK
4.04e+07
